# protocol: Mycobacterium tuberculosis growth inhibition, primary screen (AID 1259343)
# run-parameters: at 10 µM, hits give high values
Among all 6,200 compounds or so, about 2,900 (47%) were called active. So high a share suggests a set chosen from earlier hits. Some of the results follow.
Each record gets a class by inhibition: lower bin (below 30%), middle bin (30% to below 80%), upper bin (80% or more)

Recorded results for 10 compounds are shown here.
COc1cc(C(=O)Nc2ccc(-c3cnco3)cc2)ccc1C ... middle bin
O=S(=O)(Nc1ccc(F)c(Cl)c1)c1ccc(Cl)cc1F ... middle bin
Cc1ccc(CSc2nc(CC(=O)NCc3ccco3)cs2)cc1 ... upper bin
CCCC1=NN(C(C)=O)C(C(=O)NCCCN2CCCCC2C)O1 (centres undefined) ... lower bin
COCC(=O)Nc1ccc(-c2cc(OC)cc(OC)c2)cc1 ... upper bin
COc1ccccc1-c1nnc(SCC(=O)c2ccc3c(c2)OCO3)o1 ... lower bin
Cc1ccc(CSc2nc(CC(=O)NCc3ccccc3)cs2)cc1 ... middle bin
COc1cncc(-c2ccc(NC(C)=O)cc2)c1 ... upper bin
Cn1cc(C(=O)Nc2ccc(Oc3cccc(C#N)c3)cc2)ccc1=O ... lower bin
Cc1ccc(CSc2nc(CC(=O)O)cs2)cc1 ... middle bin

# input Assign a bin to `NCC(=O)Nc1ccc(-c2cccc3ccsc23)cc1F`
# output lower bin

# input Assign a bin to `COCC(=O)Nc1cccc(-c2ccc3c(c2)OCCO3)c1`
# output middle bin

# input Assign a bin to `Cc1ccc(CN(C)CC(=O)Nc2cc(Cl)ccc2C#N)cc1`
# output lower bin

# input Assign a bin to `CN(CC(=O)Nc1ccc(Cl)cc1Cl)Cc1ccsc1`
# output middle bin

# input Assign a bin to `CCN(C(=O)c1ccc2c(=O)n(CC)c(=O)[nH]c2c1)c1ccccc1C`
# output lower bin

# input Assign a bin to `O=S(=O)(Nc1ccc(F)c(F)c1)c1cc(Cl)ccc1Cl`
# output upper bin

# input Assign a bin to `Cc1ccc(CSc2nc(CC(=O)NCC(C)C)cs2)cc1`
# output middle bin

# input Assign a bin to `Cc1ccc(F)cc1NC(=O)CN(C)Cc1ccccc1F`
# output upper bin

# input Assign a bin to COC(C)c1ccc(-c2ccc(NC(=O)CN)c(F)c2)cc1 (centres undefined)
# output middle bin

# input Assign a bin to `O=C(O)c1cc(O)c2c(c1)C(=O)c1cc(O)cc(O)c1C2=O`
# output upper bin

# input Assign a bin to `O=S(=O)(Nc1cc(Cl)cc(Cl)c1)c1cc(Cl)ccc1Cl`
# output middle bin

# input Assign a bin to `COCC(=O)Nc1ccc(Oc2cccc(C)c2)cc1`
# output middle bin

###

# protocol: Mycobacterium tuberculosis growth inhibition, primary screen (AID 1259343)
# run-parameters: at 10 µM
Among all 6,200 compounds or so, about 2,900 (47%) were called active. No stated cut-off is given here; in the data, active means inhibition above about 50%; inactive means the rest. The set was probably picked from earlier hits. The list shows a part of the results.
Outcome field: choose from 1 (yes) = active, 0 (no) = inactive

Cc1ccc(C)c(Nc2nc(-c3ccc([N+](=O)[O-])cc3)cs2)c1 ... 0 (no)
Cc1occc1C(=O)N1CCCC(C(=O)c2ccc(Oc3ccccc3)cc2)C1 (centres undefined) ... 0 (no)
Clc1ccc(-n2cccc2CN2CCc3c([nH]c4ccccc34)C2c2ccccn2)nc1 (centres undefined) ... 0 (no)
COc1ccc(CC(=O)N2CCC(c3nc(-c4ccc(Cl)cc4F)no3)CC2)cc1 ... 1 (yes)
Cc1cc(C)cc(Nc2nc(-c3ccc(F)cc3)cs2)c1 ... 1 (yes)

# input Outcome logged for `c1csc(Cn2nnnc2Sc2ncnc3sccc23)c1` in this assay:
# output 0 (no)

# input Outcome logged for `CSc1ccc(-c2csc(N)n2)cc1` in this assay:
# output 0 (no)

# input Outcome logged for `CC(C)=CCc1c(O)cc2occ(-c3ccc4c(c3)OCO4)c(=O)c2c1O` in this assay:
# output 1 (yes)

# input Outcome logged for `N#CC(=Cc1cccc2ccccc12)c1nc(C2CC2)cs1` in this assay:
# output 1 (yes)

# input Outcome logged for CC1CC1c1ccc(/C=C2/SC(N)=NC2=O)o1 (centres undefined) in this assay:
# output 0 (no)

# input Outcome logged for `N#CC(=Cc1cccc2ccccc12)c1ccccn1` in this assay:
# output 0 (no)

# input Outcome logged for `O=S(=O)(Nc1nc2ccccc2nc1Cl)c1cccc(C(F)(F)F)c1` in this assay:
# output 0 (no)

# input Outcome logged for `Clc1c(CSc2nc3ccccc3s2)nc2ncccn12` in this assay:
# output 1 (yes)

# input Outcome logged for `NC(=S)Nc1nc2ccccc2s1` in this assay:
# output 1 (yes)

# input Outcome logged for COC(=O)C(C)Sc1ncnc2sc(C)c(C)c12 (centres undefined) in this assay:
# output 0 (no)
